Ref: patent US20110092486A1

# experimental-system: hHCN1 (Homo sapiens, UniProt O60741)
# Construct: expressed in transfected cells; host or cells: HEK cells, clone HEK.hHCN1.2H10
# Sequence (O60741 whole entry): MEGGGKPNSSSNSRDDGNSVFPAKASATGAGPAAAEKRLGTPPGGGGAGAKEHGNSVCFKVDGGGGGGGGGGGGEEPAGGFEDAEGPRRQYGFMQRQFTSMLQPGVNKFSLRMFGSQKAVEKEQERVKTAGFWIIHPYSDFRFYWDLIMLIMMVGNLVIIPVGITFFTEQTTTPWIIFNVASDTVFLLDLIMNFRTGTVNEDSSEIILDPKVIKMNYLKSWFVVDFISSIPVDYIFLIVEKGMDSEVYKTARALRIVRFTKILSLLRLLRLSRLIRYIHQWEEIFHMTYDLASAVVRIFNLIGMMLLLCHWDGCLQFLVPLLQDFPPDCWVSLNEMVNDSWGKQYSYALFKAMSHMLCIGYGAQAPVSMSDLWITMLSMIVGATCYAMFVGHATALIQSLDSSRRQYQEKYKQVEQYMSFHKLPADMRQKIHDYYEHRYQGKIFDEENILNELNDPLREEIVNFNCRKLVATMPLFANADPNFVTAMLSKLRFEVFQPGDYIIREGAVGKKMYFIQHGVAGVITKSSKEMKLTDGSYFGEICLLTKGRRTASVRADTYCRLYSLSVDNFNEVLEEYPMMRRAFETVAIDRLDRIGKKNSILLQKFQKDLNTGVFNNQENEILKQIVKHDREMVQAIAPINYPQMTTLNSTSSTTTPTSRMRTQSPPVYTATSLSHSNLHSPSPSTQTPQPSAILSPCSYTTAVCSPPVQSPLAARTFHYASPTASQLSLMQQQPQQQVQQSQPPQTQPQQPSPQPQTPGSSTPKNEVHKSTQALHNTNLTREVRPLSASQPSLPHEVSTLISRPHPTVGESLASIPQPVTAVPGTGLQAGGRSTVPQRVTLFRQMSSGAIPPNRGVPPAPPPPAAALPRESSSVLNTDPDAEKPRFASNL
# assay-method-text: Determination of Ih channel inhibition, time-dependent current in HEK.hHCN1.2H10 cells
# Type: cell-based
# test-settings: voltage step to −120 mV for 1 s, holding potential −40 mV, read-out: IC50 μM −120 mV
measured-endpoint: IC50 (µM)
Respond numerically; units are µM and should not be typed.

Please report the measured IC50 for C=CC[C@H](N)c1ccccc1-c1noc2ccccc12.Cl [Org 34167, hydrochloride]
8.6

----------
# experimental-system: hHCN1 (Homo sapiens, UniProt O60741)
# Construct: expressed in transfected cells; host or cells: HEK cells, clone HEK.hHCN1.2H10
# assay-method-text: Determination of Ih channel inhibition, time-dependent current in HEK.hHCN1.2H10 cells
# Type: cell-based
# test-settings: voltage step to −80 mV for 1 s, holding potential −40 mV, read-out: IC50 μM −80 mV
measured-endpoint: IC50 (µM)
Give just the numeric value; µM need not be written.

Using the record for C=CC[C@H](N)c1ccccc1-c1noc2ccccc12.Cl [Org 34167, hydrochloride] , state its measured IC50.
3.2
